Catalogue of normalized growth readings, one per entry.
RUN DESCRIPTION: chemical genetic growth profiling, strain panel (AID 1159580);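 also: tested at 20 µM; growth read once vehicle control cultures reached saturation at 30 °C; 1 = growth at the plate median or of vehicle wells; lower values mean less growth of the strain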
MEASUREMENT SETUP: S. cerevisiae deletion strains, growth OD, locus YAL026C, strain drs2, stronger effect = lower value
The whole screen tested about 5,500 compounds, of which about 2,000 (36%) were called active. Inconclusive results (about 18%) are left out. The list shows a part of the results.

# MOLECULE, normalized growth
rows = [
    ("CNC(=O)Oc1ccc2c(c1)[C@]1(C)CCN(C)[C@@H]1N2C", 1),
    ("C[C@@H]1CC2C3CCC4=CC(=O)C=C[C@]4(C)[C@@]3(F)[C@@H](O)C[C@]2(C)[C@H]1C(=O)CO (stereo partly drawn)", 0.998),
    ("C[C@@H]1CC2C3C[C@H](F)C4=CC(=O)C=C[C@]4(C)[C@@]3(F)[C@@H](O)C[C@]2(C)[C@@]1(O)C(=O)COC(=O)C(C)(C)C (stereo partly drawn)", 1),
]
